Here the recorded growth inhibition is given for each entry.
experiment: NCI Yeast Anticancer Drug Screen. Data for the cln2 rad14 strain (AID 165);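 also: 0% = growth equal to vehicle treated cultures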; conditions: S. cerevisiae cln2 rad14 strain, stronger effect = higher value; at 50.0 µM unless noted
This is part of a sample that, as a whole, favours compounds with a hit. Of some 79,000 tested, about 15% had one in any assay. Where a SMILES comes first, the peptide text is derived from it. [ ]: non-standard residue; d: D form. The star is where a group is joined. ξ: configuration not given here. Cbz = O=C(OCc1ccccc1)*; ξK = NCCCCC(N)C(=O)O
Answer format: numeric, % implied, no suffix.

| Molecule | Endpoint Result |
| --- | --- |
| O=C(Nc1cc(Cl)c(Cl)cc1Cl)C(=O)C(C(=O)c1ccccc1)C1OC(=O)c2ccccc21 (stereo unspecified) | -0.5 |
| CCCCCCCCCCCCC | 3.7 |
| C=C1C(=O)OC2/C=C(\C)C(O)CCC(C)(O)CC(OC(=O)/C(C)=C/C)C12 (stereo unspecified) | 17.4 |
| CC(C)N(C(=S)S)C(C)C | -0.65 |
| COc1cc(O)c(C(C)=O)c(O)c1 | 16.8 |
| CCCCN1C(=O)CC2[C@@H]3CCc4cc(OC(C)=O)ccc4C3CC[C@]2(C)C1=O (stereo partly specified) | 26.6 |

INPUT: Look at this molecule and give its reported growth inhibition. Cc1cc(C)c2nccc(NCCCN(C)C)c2c1[N+](=O)[O-]
OUTPUT: 5.35

INPUT: Look at this molecule and give its reported growth inhibition. CCCCCCCCCCCCCCCCCC(O)CCCCCCCCCCCCCCCCC
OUTPUT: -47.2

INPUT: Look at this molecule and give its reported growth inhibition. CCCCCCCCCCCCCCCCCCNC(=S)N/N=C/c1ccccc1[N+](=O)[O-]
OUTPUT: 4.95

INPUT: Look at this molecule and give its reported growth inhibition. NCC(=O)NC(CCCCNC(=O)OCc1ccccc1)C(=O)O (stereo unspecified) (H-Gly-[ξK](Cbz)-OH)
OUTPUT: -3.5

INPUT: Look at this molecule and give its reported growth inhibition. O=C1/C(=C/c2cccc(Cl)c2)CCCc2ccccc21
OUTPUT: 11.3

INPUT: Look at this molecule and give its reported growth inhibition. CC(=O)Nc1ccc(S(=O)(=O)N/N=C(/C)c2ccccc2)cc1
OUTPUT: 1.55

INPUT: Look at this molecule and give its reported growth inhibition. COC(=O)c1cc(Cl)ccc1OCC(=O)Nc1ccccc1
OUTPUT: -8.2

INPUT: Look at this molecule and give its reported growth inhibition. CNC(=O)c1n[nH]nc1Sc1c([N+](=O)[O-])ncn1C
OUTPUT: -34.2

INPUT: Look at this molecule and give its reported growth inhibition. O=C(O)/C=C/C(=O)NCCCCCCNC(=O)/C=C/C(=O)O
OUTPUT: -8.7

###

assay: NCI Yeast Anticancer Drug Screen. Data for the bub3 strain (AID 167); conditions: S. cerevisiae bub3 mutant strain, stronger effect = higher value; at 50.0 µM unless noted
The panel holds about 79,000 compounds, 15% with a hit somewhere; the sample as a whole holds those more often.
Readout Type: growth inhibition (%)
Answer format: numeric, % implied, no suffix.

Some solved cases for reference:
| Molecule | Units | Endpoint Result |
| --- | --- | --- |
| CCn1c(=O)n(Cc2ccccc2)c(=O)c2ccccc21 | % | -4.7 |
| CC[N+]1(CC)CCOC(=O)C1 | % | -19.4 |
| CCOc1ccc(OCC)cc1 | % | -11.1 |
| CC1(CI)COC(c2ccccc2)(C2CCCCC2)OC1 (configuration not stated) | % | -16.2 |
| C[N+](C)(C)c1ccc2[nH]c3ccccc3c2c1 | % | -6.5 |
| NC(=O)Nc1ccccc1-c1ccccc1 | % | -10.8 |
| O=C(Oc1ccccc1)C(=O)Oc1ccccc1 | % | -0.1 |
| C[Si](C)(C)Cn1cccc1 | % | -1.15 |

Next, consider the following molecule.
INPUT: Look at this molecule and give its reported growth inhibition. CSCCC(Nc1ccc([N+](=O)[O-])cc1[N+](=O)[O-])C(=O)O (configuration not stated)
OUTPUT: 17.9

###

Here the recorded growth inhibition is given for each entry.
assay: NCI Yeast Anticancer Drug Screen. Data for the bub3 strain (AID 167); conditions: S. cerevisiae bub3 mutant strain, stronger effect = higher value; at 50.0 µM unless noted
This is part of a sample that, as a whole, favours compounds with a hit. Of some 79,000 tested, about 15% had one in any assay.
Answer format: numeric, % implied, no suffix.

Some solved cases for reference:
| Molecule | growth inhibition, % |
| --- | --- |
| O=C1NC(=O)[C@@]2(CC[C@@H](O)C2)c2ccncc21 | -33.2 |
| CC(C)C1Oc2ccc(Br)cc2C1O (configuration not stated) | 18.7 |
| CC(O)c1cccc(NC(=O)NC2CCCCC2)c1 (configuration not stated) | 29.4 |

INPUT: Look at this molecule and give its reported growth inhibition. O=C(N/N=C/c1ccc(Cl)cc1)c1cccc([N+](=O)[O-])c1
OUTPUT: 8.35

INPUT: Look at this molecule and give its reported growth inhibition. NC(CC(=O)c1ccccc1NC=O)C(=O)O (configuration not stated)
OUTPUT: -0.95

INPUT: Look at this molecule and give its reported growth inhibition. COc1c(O)cc2c(c1O)C1OC(CO)C(O)C(O)C1OC2=O (configuration not stated)
OUTPUT: -20.8

INPUT: Look at this molecule and give its reported growth inhibition. CNC(=O)Nc1cccc(C(=O)O)c1
OUTPUT: 4.35

###

Here the recorded growth inhibition is given for each entry.
assay: NCI Yeast Anticancer Drug Screen. Data for the bub3 strain (AID 167); conditions: S. cerevisiae bub3 mutant strain, stronger effect = higher value; at 50.0 µM unless noted
The panel holds about 79,000 compounds, 15% with a hit somewhere; the sample as a whole holds those more often.
Answer format: numeric, % implied, no suffix.

Some solved cases for reference:
| Compound | Endpoint Result |
| --- | --- |
| Oc1ccc(C(O)CN2CCCC2)cc1O (stereo not drawn) | 2.7 |
| CCCCCCC(=O)OCC(=O)c1ccc(Br)cc1 | 22.2 |
| O=C1CCCc2[nH]ccc21 | 14.8 |
| CCSc1nnc(SCC)c2c1ncn2CC | 7.5 |
| Cc1cc(N(CCCCl)CCCCl)ccc1C=Nc1cc(Cl)c(O)c(Cl)c1 | 53 |
| CCCCOC(=O)c1cccc(C)c1 | 2.6 |
| O=c1[nH]c(/C=C/c2ccccc2)c([N+](=O)[O-])c(=O)[nH]1 | 26.6 |
| CCc1ccc(NC(=O)c2ccc(Cl)cc2Cl)cc1 | 11.8 |
| CC1SCc2nc3ccccc3n21 (stereo not drawn) | 5.7 |
| O=C(N[C@@H](CSSC[C@H](NC(=O)OCc1ccccc1)C(=O)O)C(=O)O)OCc1ccccc1 | 2.7 |

INPUT: Look at this compound and give its reported growth inhibition. CCS(=O)(=O)C(CCCl)S(=O)(=O)CC
OUTPUT: 17.4

INPUT: Look at this compound and give its reported growth inhibition. CCCCCCCCCCCCCCCCCCS(=O)(=O)CC(O)CO (stereo not drawn)
OUTPUT: -11

INPUT: Look at this compound and give its reported growth inhibition. COC(=O)C1CCCCCCCCCCC12SCCCS2 (stereo not drawn)
OUTPUT: -5.7

###

experiment: NCI Yeast Anticancer Drug Screen. Data for the mlh1 rad18 strain (AID 175); conditions: S. cerevisiae mlh1 rad18 strain growth inhibition, stronger effect = higher value; at 50.0 µM unless noted
The panel holds about 79,000 compounds, 15% with a hit somewhere; the sample as a whole holds those more often.
Here the recorded growth inhibition is given for each entry.
Answer format: numeric, % implied, no suffix.

| Compound | growth inhibition, % |
| --- | --- |
| CCCCCCCCCCCC(=O)CCCCCCCCCCCC(=O)OC | -2.35 |
| CSc1nc(N)c(I)c(Cl)n1 | -2.6 |
| COc1ccc(OC(C)C(=O)O)c2c(=O)ccccc12 (configuration not stated) | 22.1 |

INPUT: Look at this compound and give its reported growth inhibition. CN(C)C(=S)/N=c1\ssc(=S)n1Cc1cccnc1
OUTPUT: -62.8

INPUT: Look at this compound and give its reported growth inhibition. CC1CCC2C(C)C(=O)OC2C2(C)C(=O)C=CC12 (configuration not stated)
OUTPUT: -27.4

INPUT: Look at this compound and give its reported growth inhibition. CC(=O)CC(=O)Nc1ccc(OS(N)(=O)=O)cc1
OUTPUT: -15.2

###

test: NCI Yeast Anticancer Drug Screen. Data for the mec2-1 strain (AID 157); conditions: S. cerevisiae mec2-1 strain, stronger effect = higher value; at 50.0 µM unless noted
This is part of a sample that, as a whole, favours compounds with a hit. Of some 79,000 tested, about 15% had one in any assay. Calls of active or inactive are those of the source. No stated cut-off is given here; in the data, active means growth inhibition above about 70%; inactive means the rest.
Readout Type: growth inhibition

| Compound | Endpoint Result |
| --- | --- |
| COc1cccc(N(CN2CC=CC2=O)C(C)=O)c1 | 6.3% (inactive) |

Next, consider the following compound.
INPUT: Look at this compound and give its reported growth inhibition. CN1CCc2nc[nH]c2C1
OUTPUT: -4.95% (inactive)
